Test: chemical genetic growth profiling, strain panel (AID 1159580);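 also: tested at 20 µM; growth read once vehicle control cultures reached saturation at 30 °C; 1 = growth at the plate median or of vehicle wells; lower values mean less growth of the strain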
Conditions: S. cerevisiae deletion strains, growth OD, locus YPR141C, strain kar3
About 2,000 (36%) of roughly 5,500 compounds were called active. Inconclusive results (about 18%) are left out. Rule as the data show it: active = normalized growth mostly below about 0.91 (no sharp cut-off); inconclusive = no clear call, values can overlap the other calls; inactive = mostly above about 0.92. The list shows a part of the results.
Outcome codes: T = active, F = inactive

compound=CC[C@H]1OC(=O)[C@H](C)[C@@H](O[C@H]2C[C@@](C)(OC)[C@@H](O)[C@H](C)O2)[C@H](C)[C@@H](O[C@@H]2O[C@H](C)C[C@H](N(C)C)[C@H]2O)[C@](C)(OC)C[C@@H](C)C(=O)[C@H](C)[C@@H](O)[C@]1(C)O class_assignment=F
compound=Oc1cc(O)c2c(c1)O[C@H](c1cc(O)c(O)c(O)c1)[C@H](O)C2 class_assignment=F
compound="NCCC(O)C(=O)NC1CC(N)C(OC2OC(CN)C(O)C(O)C2N)C(OC2OC(CO)C(O)C2O)C1O (centres undefined)" class_assignment=F
compound="CN1C2CCC1CC(OC(c1ccccc1)c1ccccc1N)C2 (centres undefined)" class_assignment=F
compound=CC[C@@]1(O)C[C@H](O[C@H]2C[C@H](N(C)C)[C@H](O)[C@H](C)O2)c2c(cc3c(c2O)C(=O)c2c(O)cccc2C3=O)[C@H]1C(=O)OC class_assignment=F
compound=CN1C2C[C@H](OC(=O)[C@H](CO)c3ccccc3)C[C@H]1[C@@H](O)C2 class_assignment=F
compound="O=C(OCC(O)CO)c1ccccc1Nc1ccnc2cc(Cl)ccc12 (centres undefined)" class_assignment=F
compound=CC[C@@]1(O)C[C@H](O[C@H]2C[C@H](N(C)C)[C@H](O)[C@H](C)O2)c2c(cc3c(c2O)C(=O)c2c(O)ccc(O)c2C3=O)[C@H]1C(=O)OC class_assignment=F
compound="CCC1(O)CC(OC2CC(N(C)C)C(OC3CC(O)C(OC4CCC(=O)C(C)O4)C(C)O3)C(C)O2)c2c(cc3c(c2O)C(=O)c2c(O)cccc2C3=O)C1C(=O)OC (centres undefined)" class_assignment=F
compound=C[n+]1c2cc(N)ccc2cc2ccc(N)cc21 class_assignment=F
compound=O=C1c2ccc(O)cc2O[C@H](c2cc(O)c(O)c(O)c2)[C@H]1O class_assignment=F
compound="COc1c(N2CCNC(C)C2)c(F)cc2c(=O)c(C(=O)O)cn(C3CC3)c12 (centres undefined)" class_assignment=F
compound=N[C@@H](Cc1ccc(N(CCCl)CCCl)cc1)C(=O)O class_assignment=F
compound=COC(=O)c1cc(=O)c(O)c2c(O)c(O)ccc2c1 class_assignment=T
compound=Oc1cc(O)c2c(c1)O[C@H](c1ccc(O)c(O)c1)[C@@H](O)C2 class_assignment=F
compound="CN1C2CCC1CC(OC(c1ccccc1)c1ccccc1)C2 (centres undefined)" class_assignment=F
compound=Oc1ccc2c(c1)O[C@H](c1ccc(O)c(O)c1)[C@@H](O)C2 class_assignment=F
compound=C#CCN(C)Cc1ccccc1 class_assignment=F
compound=O=C(O)CCCc1ccccc1 class_assignment=T

* * *

Assay: chemical genetic growth profiling, strain panel (AID 1159580);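 also: tested at 20 µM; growth read once vehicle control cultures reached saturation at 30 °C; 1 = growth at the plate median or of vehicle wells; lower values mean less growth of the strain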
Details: S. cerevisiae deletion strains, growth OD, locus YNL183C, strain NPR1, hits give low values
The whole screen tested about 5,500 compounds, of which about 2,000 (36%) were called active. About 18% were inconclusive and are not listed. The list shows a part of the results.
# normalized growth values compiled below
reported-endpoint: normalized growth

compound="CCN1CCCC(OC(=O)C(c2ccccc2)c2ccccc2)C1 (centres undefined)" reported_endpoint="normalized growth" value_observed=0.943
compound=Cc1[nH]c2ccccc2c1CN(C)C reported_endpoint="normalized growth" value_observed=0.94
compound=O=C(c1ccc(OCCN2CCCCC2)cc1)c1c(-c2ccc(O)cc2)sc2cc(O)ccc12 reported_endpoint="normalized growth" value_observed=0.965
compound="CCC(C)C(=O)O[C@@H]1C[C@@]2(C)[C@H](c3ccoc3)OC(=O)CC23OC2(C)O[C@]14[C@]1(C)[C@@H](CC(=O)OC)C5(C)CC1(O)[C@](O)(C5OC(=O)C1(C)OC1C)[C@@H](OC(C)=O)[C@]34O2 (some centres undefined)" reported_endpoint="normalized growth" value_observed=0.928
compound=C[n+]1c2cc(N)ccc2cc2ccc(N)cc21 reported_endpoint="normalized growth" value_observed=0.87
compound=O=C(O)/C=C/c1ccc(O)c(O)c1 reported_endpoint="normalized growth" value_observed=0.971
compound=NCCS(=O)(=O)O reported_endpoint="normalized growth" value_observed=0.939
compound=O=S(=O)(O)CCS reported_endpoint="normalized growth" value_observed=0.933
compound="CC(C)NCC(O)COc1cccc2[nH]ccc12 (centres undefined)" reported_endpoint="normalized growth" value_observed=0.955
compound="COC(=O)C[C@H]1C2(C)CC34OC5(C)O[C@@]6([C@H](OC(C)=O)C(OC(C)=O)[C@]7(C)C(/C(=C(/O)C(C)C)C(=O)O[C@H]7c7ccoc7)[C@@]6(O5)[C@H](OC(C)=O)[C@@]3(O)C2OC(=O)C(C)C)[C@]14C (some centres undefined)" reported_endpoint="normalized growth" value_observed=0.954
compound="COc1cc([C@@H]2c3cc4c(cc3C(OC3O[C@@H]5COC(C)O[C@H]5[C@H](O)[C@H]3O)C3COC(=O)[C@@H]32)OCO4)cc(OC)c1O (some centres undefined)" reported_endpoint="normalized growth" value_observed=0.995
compound=O=C(ON=C1CCCCC1)c1ccc([N+](=O)[O-])cc1 reported_endpoint="normalized growth" value_observed=0.916
compound=O=[N+]([O-])c1ccc(ON=C2CCCCC2)c([N+](=O)[O-])c1 reported_endpoint="normalized growth" value_observed=0.795
compound=O=S(=O)(O)c1cc(N=C=S)ccc1/C=C/c1ccc(N=C=S)cc1S(=O)(=O)O reported_endpoint="normalized growth" value_observed=0.961
compound=O=C(O)CCCc1ccccc1 reported_endpoint="normalized growth" value_observed=0.772
compound="C[C@]12CCC(=O)C=C1C=CC1C2CC[C@@]2(C)C1CC[C@@]2(O)CCC(=O)O (some centres undefined)" reported_endpoint="normalized growth" value_observed=0.995
compound="C=C[C@@](C)(O)CCC1C(=C)C[C@H](O)C2C(C)(C)CCCC12C (some centres undefined)" reported_endpoint="normalized growth" value_observed=0.923
compound=COc1ccc2c(c1)OC/C(=C\c1ccc(OC)c(O)c1)C2=O reported_endpoint="normalized growth" value_observed=0.924
compound=O=C(/C=C/c1ccc(O)c(O)c1)OCCc1ccccc1 reported_endpoint="normalized growth" value_observed=0.803
compound=COc1cc(Cl)ccc1N/N=C(/C#N)C(N)=O reported_endpoint="normalized growth" value_observed=0.148
compound=c1ccc2c(c1)sc1ccccc12 reported_endpoint="normalized growth" value_observed=0.96
compound=CCOC(=O)c1ccc2nc(N=CNO)sc2c1 reported_endpoint="normalized growth" value_observed=1
compound="COC(=O)C[C@H]1C2(C)CC34OC5(C)O[C@@]6([C@H](OC)C(OC(=O)C(C)C)[C@]7(C)C(/C(=C(/OC)C(C)C)C(=O)O[C@H]7c7ccoc7)[C@@]6(O5)[C@H](OC)[C@@]3(OC)C2OC(C)=O)[C@]14C (some centres undefined)" reported_endpoint="normalized growth" value_observed=0.935
compound=O=C1C(Cl)=C(Cl)C(=O)C(Cl)=C1Cl reported_endpoint="normalized growth" value_observed=0.0843
compound="CC(=O)S[C@@H]1CC2=CC(=O)CC[C@]2(C)[C@H]2CC[C@@]3(C)[C@@H](CC[C@@]34CCC(=O)O4)C12 (some centres undefined)" reported_endpoint="normalized growth" value_observed=0.977
compound=N[C@@H](Cc1ccc(N(CCCl)CCCl)cc1)C(=O)O reported_endpoint="normalized growth" value_observed=0.966
compound=CN1CC(=O)N=C1N reported_endpoint="normalized growth" value_observed=0.893
compound="COc1ccc2c(c1)OC1(O)COc3cc(OC)c(OC)cc3C1=C2 (centres undefined)" reported_endpoint="normalized growth" value_observed=0.892
compound="CCC(C)C(=O)O[C@@H]1C[C@@]2(C)[C@H](c3ccoc3)OC(=O)CC23OC2(C)OC34[C@H](OC(=O)C(C)C)[C@@]3(O)[C@@H](OC(=O)C5(C)OC5C)[C@@]5(C)C[C@]3(O)[C@@](C)([C@H]5CC(=O)OC)C14O2 (some centres undefined)" reported_endpoint="normalized growth" value_observed=0.988
compound=CCCc1cc(C(N)=S)ccn1 reported_endpoint="normalized growth" value_observed=0.942
compound=Cc1ccc(C(=O)Nc2ccc(S(=O)(=O)O)c3cc(S(=O)(=O)O)cc(S(=O)(=O)O)c23)cc1NC(=O)c1cccc(NC(=O)Nc2cccc(C(=O)Nc3cc(C(=O)Nc4ccc(S(=O)(=O)O)c5cc(S(=O)(=O)O)cc(S(=O)(=O)O)c45)ccc3C)c2)c1 reported_endpoint="normalized growth" value_observed=1
compound="CN(C)CCCC1(c2ccc(F)cc2)OCc2cc(C#N)ccc21 (centres undefined)" reported_endpoint="normalized growth" value_observed=1
compound="CC1(O)CC2C(CC1O)C2(C)C (centres undefined)" reported_endpoint="normalized growth" value_observed=0.935
compound=O=C(Oc1cccc2[nH]ccc12)c1ccc(C(F)(F)F)cc1 reported_endpoint="normalized growth" value_observed=0.769
compound=CCN(CC)C(=O)N1CCN(C)CC1 reported_endpoint="normalized growth" value_observed=0.986
compound=CSc1nc2cc(Oc3cccc(Cl)c3Cl)c(Cl)cc2[nH]1 reported_endpoint="normalized growth" value_observed=0.000876
compound=OC[C@@H](O)[C@@H](O)[C@H](O)[C@@H](O)CO reported_endpoint="normalized growth" value_observed=0.947
compound="COc1cc([C@@H]2c3cc4c(cc3[C@@H](O)C3COC(=O)C32)OCO4)cc(OC)c1O (some centres undefined)" reported_endpoint="normalized growth" value_observed=0.997
compound="Cn1c(=O)c2c(ncn2CC(O)CO)n(C)c1=O (centres undefined)" reported_endpoint="normalized growth" value_observed=0.987
